Numbers sourced from PubChem BioAssay (NCI).

test system: HCC-2998 colon; test: NCI tumour cell line growth inhibition, 48 h
property label: TGI

{"columns": ["molecule", "assayed target", "property label", "observed value"],
 "data": [
  ["COc1ccc(C2C3=C(COC3=O)Oc3cc4c(cc32)OCO4)c(OC)c1 (stereo not drawn)", "HCC-2998 colon", "TGI", "> 100 µM"],
  ["O=c1cc(-c2ccncc2)[nH]c2cc3c(cc12)OCO3", "HCC-2998 colon", "TGI", "> 100 µM"],
  ["COC(=O)c1ccccc1NC(=O)C(=O)NNC(=O)c1ccncc1", "HCC-2998 colon", "TGI", "> 100 µM"]
]}

###

test system: SK-MEL-2 melanoma; test: NCI tumour cell line growth inhibition, 48 h
Recorded TGI for the following compounds

{"columns": ["compound", "TGI"],
 "data": [
  ["O=C1C=CC(=O)N1n1c(-c2ccccc2)n[nH]c1=O", "> 100 µM"],
  ["CN(C)/N=C(/c1nc2ccc(Cl)cc2[nH]c1=O)C(O)c1ccc(C(O)/C(=N\\N(C)C)c2nc3ccc(Cl)cc3[nH]c2=O)cc1 (stereo not given)", "> 100 µM"],
  ["O=C1NC2CCCCC2N=C1CC(=O)c1ccc(Br)cc1 (stereo not given)", "> 100 µM"],
  ["CN(C)CCCNC(=O)c1cc(NC(=O)c2cc(NC(=O)CCCn3c4ccccc4c4ccccc43)cn2C)cn1C", "> 79.9 µM"],
  ["CS(=O)(=O)Nc1ccc2c(c1)N(S(C)(=O)=O)CC2CCl (stereo not given)", "> 100 µM"]
]}

###

system: TK-10 renal; test: NCI tumour cell line growth inhibition, 48 h
Recorded TGI for the following compounds

{"columns": ["compound", "TGI"],
 "data": [
  ["c1ccc2c(c1)Sc1nccc3ccnc-2c13", "> 100 µM"],
  ["C[C@]12CCCC(=O)C1(O)C[C@H](C(=O)O)CC2 (stereo partly specified)", "> 100 µM"],
  ["CN1CC[C@]2(C)c3ccc(O)cc3CC3CCCC1C32C (stereo partly specified)", "> 100 µM"],
  ["CCc1c(CNc2ccc(C(=O)NC(CC(=O)O)C(=O)O)cc2)ccc2nc(N)nc(N)c12 (stereo unspecified)", "> 1000 µM"],
  ["NC(N)=NCCC1OC(=O)C2=C1c1c(O)ccc3nccc(c13)O2 (stereo unspecified)", "> 100 µM"],
  ["CN1C(=O)N(C)C(O)C(Cl)(Br)C1=O (stereo unspecified)", "> 100 µM"]
]}

###

Recorded TGI for the following compounds
test system: KM12 colon; assay: NCI tumour cell line growth inhibition, 48 h
property label: TGI

{"columns": ["smiles data", "property label", "observed value"],
 "data": [
  ["Cc1cc2c(O)c(c1)CN(CC(=O)O)Cc1cc(C)cc(c1O)CN(CC(=O)O)Cc1cc(C)cc(c1O)CN(CC(=O)O)C2", "TGI", "> 100 µM"],
  ["N.N.N.N.O=C([O-])C(Cl)Cl.O=C([O-])C(Cl)Cl.[Co+3].[O-][Cl+3]([O-])([O-])[O-]", "TGI", "> 100 µM"],
  ["CCCCN(CCCC)c1c([N+](=O)[O-])c(=O)nc2ccccn12", "TGI", "> 100 µM"],
  ["CC(C)N1CC2CC(CN(C(=O)c3ccccc3)C2)C1", "TGI", "> 100 µM"],
  ["Nc1nc(Cl)cc(NCC2(O)CC2)n1", "TGI", "> 100 µM"]
]}

###

test system: SK-MEL-5 melanoma; assay: NCI tumour cell line growth inhibition, 48 h

{"columns": ["smiles data", "assayed target", "GI50"],
 "data": [
  ["CCCCCCCCCCCCCCCCCC1=NCCN1C(=O)OCCO", "SK-MEL-5 melanoma", "2930 nM"],
  ["COc1ccc(-c2ccc(-c3ccc(C(=N)N)cn3)o2)cc1", "SK-MEL-5 melanoma", "3430 nM"],
  ["C=C1C(=O)O[C@H]2[C@H]1CC/C(COC(=O)c1cc3cc(Cl)ccc3[nH]1)=C\\CC[C@@]1(C)O[C@@H]21", "SK-MEL-5 melanoma", "1910 nM"],
  ["CC[O-].CC[O-].O=S(=O)([O-])c1ccc([O-])c2ncccc12.O=S(=O)([O-])c1ccc([O-])c2ncccc12.[Ti+4]", "SK-MEL-5 melanoma", "> 100000 nM"],
  ["COc1cc(S(=O)(=O)Nc2ccc(C(=O)/C=C/c3ccc(O)cc3)cc2)ccc1F", "SK-MEL-5 melanoma", "> 100000 nM"],
  ["Cc1c(C(=O)NCCN2CCOCC2)cn2ncnc(Oc3ccc(NC(=O)Nc4ccc(Cl)c(C(F)(F)F)c4)cc3)c12", "SK-MEL-5 melanoma", "1650 nM"],
  ["CCn1c2ccc(O)cc2c2c(C)c3c[n+](C)ccc3c(C)c21", "SK-MEL-5 melanoma", "2270 nM"],
  ["COc1ccccc1/C=C/C(=O)c1ccccc1", "SK-MEL-5 melanoma", "12700 nM"]
]}

###

Recorded TGI for the following molecules
system: SW-620 colon; assay: NCI tumour cell line growth inhibition, 48 h

{"columns": ["molecule", "TGI"],
 "data": [
  ["CC1=C(C(=O)Nc2cccc(Cl)c2)C(c2ccccc2F)C(C(=O)Nc2cccc(Cl)c2)=C(C)N1", "64.6 µM"],
  ["CC[O-].CC[O-].O=S(=O)([O-])c1ccc([O-])c2ncccc12.O=S(=O)([O-])c1ccc([O-])c2ncccc12.[Ti+4]", "> 100 µM"],
  ["Cc1cccc(C)c1NC(=O)C1C(=O)N(c2c(C)cccc2C)C(=O)/C1=N\\NC(N)=S (centres undefined)", "> 100 µM"],
  ["Cc1cc(S(=O)(=O)Nc2n[nH]c(-c3ccccn3)n2)c(S)cc1Cl", "54.2 µM"],
  ["CCCCSc1nsc(N(C(=O)c2ccccc2)C(=O)c2ccccc2)n1", "> 100 µM"],
  ["CCOc1cccc(/C=N/NC(=O)C(=O)Nc2cccc(C(F)(F)F)c2)c1O", "> 100 µM"],
  ["C1=C2C3=[N+](CCCCC3)CC2Cc2ccsc21 (centres undefined)", "> 100 µM"],
  ["CSC(SC)=C(C(=O)O)P(=O)(O)O", "> 100 µM"],
  ["Cc1cc2c(cc1Cl)SC1=NN(C)C(N(C)C)N1S2(=O)=O (centres undefined)", "> 100 µM"],
  ["N#C/C(C(=O)Nc1ccc(Cl)cc1)=C(/N)N1CCCC1", "> 100 µM"],
  ["CCCCN(CCCC)c1c([N+](=O)[O-])c(=O)nc2ccccn12", "> 100 µM"],
  ["CC[C@H](Nc1nc(C)nc(N)c1C#N)c1nc2cccc(NCc3ccc(C(=O)NO)cc3)c2c(=O)n1-c1ccccc1", "4.47 µM"],
  ["Cn1c(=O)c(-c2ccccc2)c(O)c2ccccc21", "> 100 µM"],
  ["COC(=O)[C@@H]1CCCCC[C@H]2C(CO)=C(C)C(=O)C12 (some centres undefined)", "> 100 µM"]
]}

###

tested on: MCF7 breast; assay: NCI tumour cell line growth inhibition, 48 h
Recorded TGI for the following molecules

{"columns": ["molecule", "TGI"],
 "data": [
  ["O=S(=O)(c1cc(Cl)ccc1Cl)n1ccnc1", "> 100 µM"],
  ["O=C(CCc1cc(O)cc(O)c1)NCCCNC(=O)CCc1cc(O)cc(O)c1", "> 100 µM"],
  ["CN(C)CCNC(=O)c1cc(Cl)cc2ccc(-c3ccccc3)nc12", "14.5 µM"],
  ["COc1cc(C(=O)Oc2ccc3c(c2)OCO3)cc(OC)c1OC", "> 100 µM"],
  ["C=C1C(=O)O[C@H]2[C@H]1CC/C(COC(=O)c1cc3cc(Cl)ccc3[nH]1)=C\\CC[C@@]1(C)O[C@@H]21", "2.32 µM"],
  ["CC(C)(C)OC(=O)NC(Cc1ccccc1)NC(=O)NC(=O)OCc1ccccc1 (configuration not stated)", "> 100 µM"],
  ["O=C(OCCN=c1c2ccccc2ccc2ccccc12)c1ccccc1", "> 100 µM"],
  ["CC(C)C(=O)C(C)(C)CCc1ccccn1", "> 100 µM"],
  ["COc1ccc2nc(/C(N)=C\\C#N)ccc2c1", "> 100 µM"],
  ["COc1ccccc1/C=C/C(=O)c1ccccc1", "10.2 µM"],
  ["COc1ccc2c(c1)/C(=C\\c1c(Cl)[nH]c3ccc(OC)cc13)C(=O)N2", "> 100 µM"],
  ["Cc1cc(S(=O)(=O)Nc2n[nH]c(-c3ccccn3)n2)c(S)cc1Cl", "> 100 µM"],
  ["CN(C)CC1CCC/C(=C\\c2ccc(OC(=O)c3ccc(Cl)cc3)cc2)C1=O (configuration not stated)", "1.58 µM"],
  ["COc1ccc2[nH]c(O)c(C(=Nc3ccc(N(C)C(=O)CN4CCN(C)CC4)cc3)c3ccccc3)c2c1", "3.62 µM"],
  ["COc1ccc(-c2ccc(-c3ccc(C(=N)N)cn3)o2)cc1", "13.4 µM"],
  ["NC(=O)c1csc(C2(O)COC(CO)C2O)n1 (configuration not stated)", "> 100 µM"],
  ["S=C(N/N=C\\C(=N/NC(=S)N1CCCCC1)c1ccccc1)N1CCCCC1", "> 22.4 µM"],
  ["COc1ccc2cc(-c3c(-c4ccncc4)nc(-c4ccc(S(C)(=O)=O)cc4C)n3C)ccc2c1", "> 18.4 µM"],
  ["CC[C@H](Nc1nc(C)nc(N)c1C#N)c1nc2cccc(NCc3ccc(C(=O)NO)cc3)c2c(=O)n1-c1ccccc1", "5.89 µM"],
  ["N#C/C(=C/n1c(=S)[nH]c2ccc([N+](=O)[O-])cc21)C(N)=O", "> 100 µM"],
  ["CCC[n+]1cc2cc(OC)c(OC)cc2c2c1-c1cc3c(cc1C2)OCO3", "> 33.8 µM"],
  ["Cn1c2c(c3ccc(Cl)c(Cl)c31)C(C#N)C1(CCNCC1)NC2=O (configuration not stated)", "3.01 µM"],
  ["CS(=O)(=O)Nc1ccc2c(c1)N(S(C)(=O)=O)CC2CCl (configuration not stated)", "> 100 µM"],
  ["COc1cc(CC(C)NC(C)=O)cc(OC)c1 (configuration not stated)", "> 100 µM"],
  ["CC1C(NNc2ccccc2)Oc2cc3c(cc2C1c1ccccc1O)OCO3 (configuration not stated)", "16.8 µM"],
  ["C=C1OC(c2ccccc2NC)=NC12CCCCC2", "> 100 µM"],
  ["C1=C2C3=[N+](CCCCC3)CC2Cc2ccsc21 (configuration not stated)", "> 100 µM"],
  ["NC(=O)c1cc2c3ccccc3ccn2c1-c1ccccc1", "13.5 µM"],
  ["CSc1cc(=O)n2c3ccccc3c3ccnc1c32", "> 100 µM"],
  ["CO[C@H]1SC[C@H](OC(C)=O)[C@H](OC(C)=O)[C@H]1OC(C)=O", "> 100 µM"],
  ["CC1=NN(c2nc(N)nc(-c3sccc3N)n2)C(C)(C)C1", "> 100 µM"],
  ["O=c1cc(-c2ccncc2)[nH]c2cc3c(cc12)OCO3", "> 100 µM"]
]}
